test: clinical; settings: human, in vivo, iv, 200 mg, Fe (%)
Positions of bridges follow the written chain, without caps; N, C: chain ends. Non-standard residues stand in square brackets, D forms with d. Residues, ends and D or L forms follow the SMILES beside them. *: point of attachment. X1 = NC[C@@H](CC(=O)*)c1cccc(Cl)c1; Dab = NCC[C@H](N)C(=O)O; Dap = NC[C@H](N)C(=O)O
ASSAY READOUT: dose excreted

[[record]]
molecule = "CC(C)C[C@@H]1NC(=O)[C@@H](Cc2ccccc2)NC(=O)[C@H](CCN)NC(=O)[C@@H](NC(=O)[C@H](CN)NC(=O)[C@@H](NC(=O)C[C@H](CN)c2cccc(Cl)c2)[C@@H](C)O)CCNC(=O)[C@H]([C@@H](C)O)NC(=O)[C@H](CCN)NC(=O)[C@H](CCN)NC1=O [SPR206] (X1-T[Dap][Dab][Dab][dF]L[Dab][Dab]T; lactam 3-C (inferred))"
assay_readout = "dose excreted"
measurement = "35.7%"


---

test: clinical; parameters: species or system human; conditions: human, in vivo, iv, 400 mg, Vz
Positions of bridges follow the written chain, without caps; N, C: chain ends. Non-standard residues stand in square brackets, D forms with d. Residues, ends and D or L forms follow the SMILES beside them. *: point of attachment. X1 = NC[C@@H](CC(=O)*)c1cccc(Cl)c1; Dab = NCC[C@H](N)C(=O)O; Dap = NC[C@H](N)C(=O)O
ASSAY READOUT: Vd (L)

[[record]]
compound = "CC(C)C[C@@H]1NC(=O)[C@@H](Cc2ccccc2)NC(=O)[C@H](CCN)NC(=O)[C@@H](NC(=O)[C@H](CN)NC(=O)[C@@H](NC(=O)C[C@H](CN)c2cccc(Cl)c2)[C@@H](C)O)CCNC(=O)[C@H]([C@@H](C)O)NC(=O)[C@H](CCN)NC(=O)[C@H](CCN)NC1=O [SPR206] (X1-T[Dap][Dab][Dab][dF]L[Dab][Dab]T; lactam 3-C (inferred))"
measurement = 19.4


---

experiment: clinical; set-up: species or system human; conditions: human, in vivo, 100 mg, Cmax
Positions of bridges follow the written chain, without caps; N, C: chain ends. Non-standard residues stand in square brackets, D forms with d. Residues, ends and D or L forms follow the SMILES beside them. *: point of attachment. X1 = NC[C@@H](CC(=O)*)c1cccc(Cl)c1; Dab = NCC[C@H](N)C(=O)O; Dap = NC[C@H](N)C(=O)O
ASSAY READOUT: Cmax

[[record]]
compound = "CC(C)C[C@@H]1NC(=O)[C@@H](Cc2ccccc2)NC(=O)[C@H](CCN)NC(=O)[C@@H](NC(=O)[C@H](CN)NC(=O)[C@@H](NC(=O)C[C@H](CN)c2cccc(Cl)c2)[C@@H](C)O)CCNC(=O)[C@H]([C@@H](C)O)NC(=O)[C@H](CCN)NC(=O)[C@H](CCN)NC1=O [SPR206] (X1-T[Dap][Dab][Dab][dF]L[Dab][Dab]T; lactam 3-C (inferred))"
assay_readout = "Cmax"
measurement = "6340 ng/mL"


---

test: clinical; design: species or system human; conditions: human, in vivo, iv, 10 mg
Positions of bridges follow the written chain, without caps; N, C: chain ends. Non-standard residues stand in square brackets, D forms with d. Residues, ends and D or L forms follow the SMILES beside them. *: point of attachment. X1 = NC[C@@H](CC(=O)*)c1cccc(Cl)c1; Dab = NCC[C@H](N)C(=O)O; Dap = NC[C@H](N)C(=O)O
ASSAY READOUT: Tmax (h)

[[record]]
molecule = "CC(C)C[C@@H]1NC(=O)[C@@H](Cc2ccccc2)NC(=O)[C@H](CCN)NC(=O)[C@@H](NC(=O)[C@H](CN)NC(=O)[C@@H](NC(=O)C[C@H](CN)c2cccc(Cl)c2)[C@@H](C)O)CCNC(=O)[C@H]([C@@H](C)O)NC(=O)[C@H](CCN)NC(=O)[C@H](CCN)NC1=O [SPR206] (X1-T[Dap][Dab][Dab][dF]L[Dab][Dab]T; lactam 3-C (inferred))"
measurement = 1


---

assay: clinical; parameters: species or system human; conditions: human, in vivo, 50 mg, Cmax
Positions of bridges follow the written chain, without caps; N, C: chain ends. Non-standard residues stand in square brackets, D forms with d. Residues, ends and D or L forms follow the SMILES beside them. *: point of attachment. X1 = NC[C@@H](CC(=O)*)c1cccc(Cl)c1; Dab = NCC[C@H](N)C(=O)O; Dap = NC[C@H](N)C(=O)O
ASSAY READOUT: Cmax (ng/mL)

[[record]]
compound = "CC(C)C[C@@H]1NC(=O)[C@@H](Cc2ccccc2)NC(=O)[C@H](CCN)NC(=O)[C@@H](NC(=O)[C@H](CN)NC(=O)[C@@H](NC(=O)C[C@H](CN)c2cccc(Cl)c2)[C@@H](C)O)CCNC(=O)[C@H]([C@@H](C)O)NC(=O)[C@H](CCN)NC(=O)[C@H](CCN)NC1=O [SPR206] (X1-T[Dap][Dab][Dab][dF]L[Dab][Dab]T; lactam 3-C (inferred))"
measurement = 2900


---

Assay: clinical
Design: species or system human
Settings: human, in vivo, 50 mg, CL
Experimental: This was a single-center, phase 1, randomized, double-blind, placebo-controlled, first-in-human study to assess the safety, tolerability, and PK of SPR206 following SAD and MAD administrations (Fig. 7). […] Plasma and urine concentrations and PK parameters for SPR206 were summarized for each treatment using descriptive statistics. In the SAD/MAD study, geometric means were calculated for AUC and Cmax. […]
Positions of bridges follow the written chain, without caps; N, C: chain ends. Non-standard residues stand in square brackets, D forms with d. Residues, ends and D or L forms follow the SMILES beside them. *: point of attachment. X1 = NC[C@@H](CC(=O)*)c1cccc(Cl)c1; Dab = NCC[C@H](N)C(=O)O; Dap = NC[C@H](N)C(=O)O
ASSAY READOUT: clearance (mL/min)

[[record]]
molecule = "CC(C)C[C@@H]1NC(=O)[C@@H](Cc2ccccc2)NC(=O)[C@H](CCN)NC(=O)[C@@H](NC(=O)[C@H](CN)NC(=O)[C@@H](NC(=O)C[C@H](CN)c2cccc(Cl)c2)[C@@H](C)O)CCNC(=O)[C@H]([C@@H](C)O)NC(=O)[C@H](CCN)NC(=O)[C@H](CCN)NC1=O [SPR206] (X1-T[Dap][Dab][Dab][dF]L[Dab][Dab]T; lactam 3-C (inferred))"
measure_unit = "mL/min"
measurement = 83.3


---

test: clinical; details: human, in vivo, iv, 300 mg, Fe (fraction of dose recovered in urine as unchanged drug)
Positions of bridges follow the written chain, without caps; N, C: chain ends. Non-standard residues stand in square brackets, D forms with d. Residues, ends and D or L forms follow the SMILES beside them. *: point of attachment. X1 = NC[C@@H](CC(=O)*)c1cccc(Cl)c1; Dab = NCC[C@H](N)C(=O)O; Dap = NC[C@H](N)C(=O)O
ASSAY READOUT: dose excreted (%)

[[record]]
compound = "CC(C)C[C@@H]1NC(=O)[C@@H](Cc2ccccc2)NC(=O)[C@H](CCN)NC(=O)[C@@H](NC(=O)[C@H](CN)NC(=O)[C@@H](NC(=O)C[C@H](CN)c2cccc(Cl)c2)[C@@H](C)O)CCNC(=O)[C@H]([C@@H](C)O)NC(=O)[C@H](CCN)NC(=O)[C@H](CCN)NC1=O [SPR206] (X1-T[Dap][Dab][Dab][dF]L[Dab][Dab]T; lactam 3-C (inferred))"
measurement = 49


---

assay: clinical; set-up: species or system human; conditions: human, in vivo, iv, 200 mg, Cmax
Positions of bridges follow the written chain, without caps; N, C: chain ends. Non-standard residues stand in square brackets, D forms with d. Residues, ends and D or L forms follow the SMILES beside them. *: point of attachment. X1 = NC[C@@H](CC(=O)*)c1cccc(Cl)c1; Dab = NCC[C@H](N)C(=O)O; Dap = NC[C@H](N)C(=O)O
ASSAY READOUT: Cmax (ng/mL)

[[record]]
compound = "CC(C)C[C@@H]1NC(=O)[C@@H](Cc2ccccc2)NC(=O)[C@H](CCN)NC(=O)[C@@H](NC(=O)[C@H](CN)NC(=O)[C@@H](NC(=O)C[C@H](CN)c2cccc(Cl)c2)[C@@H](C)O)CCNC(=O)[C@H]([C@@H](C)O)NC(=O)[C@H](CCN)NC(=O)[C@H](CCN)NC1=O [SPR206] (X1-T[Dap][Dab][Dab][dF]L[Dab][Dab]T; lactam 3-C (inferred))"
assay_readout = "Cmax"
measurement = 11300

